# key: entry, value: IC50
PROTOCOL_DESCRIPTION: MTT cell viability assay
Type: cell-based
MEASUREMENT_CONTEXT: human, Hep-G2 cells, mean ± SE, unit inferred, read-out: Cytotoxicity (IC50), Hep-G2

SMILES_REPRESENTATION: CC(=O)Oc1ccccc1C(=O)O
IC50 [mg/L]: 192
--
SMILES_REPRESENTATION: COc1cccc2c1C(=O)c1c(O)c3c(c(O)c1C2=O)C[C@@](O)(C(=O)CO)C[C@@H]3O[C@H]1C[C@H](N)[C@H](O)[C@H](C)O1
IC50 [mg/L]: 4.8

----------
ASSAYED_TARGET: COX-2 (Ovis aries)
Sequence (P79208 17-603): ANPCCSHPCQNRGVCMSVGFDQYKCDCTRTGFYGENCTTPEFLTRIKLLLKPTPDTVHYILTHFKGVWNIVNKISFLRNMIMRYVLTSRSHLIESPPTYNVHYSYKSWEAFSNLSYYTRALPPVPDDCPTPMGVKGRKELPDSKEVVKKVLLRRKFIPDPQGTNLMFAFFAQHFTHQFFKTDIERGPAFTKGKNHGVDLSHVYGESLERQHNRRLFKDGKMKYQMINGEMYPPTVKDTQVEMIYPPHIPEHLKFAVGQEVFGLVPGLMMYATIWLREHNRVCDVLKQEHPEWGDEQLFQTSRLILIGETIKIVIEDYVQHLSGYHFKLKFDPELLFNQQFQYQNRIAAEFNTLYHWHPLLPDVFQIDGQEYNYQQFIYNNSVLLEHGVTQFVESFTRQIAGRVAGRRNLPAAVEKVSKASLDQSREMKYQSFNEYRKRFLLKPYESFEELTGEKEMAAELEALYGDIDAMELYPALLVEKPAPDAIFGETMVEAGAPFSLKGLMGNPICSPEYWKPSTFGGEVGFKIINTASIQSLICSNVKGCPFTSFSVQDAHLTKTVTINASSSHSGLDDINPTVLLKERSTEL
VALUE_KIND: IC50 (nM)

COMPOUND: CS(=O)(=O)c1ccc(C2=C(c3ccccc3)C(=O)OC2)cc1 [Rofecoxib]
VALUE_KIND: IC50
QUANTITY_UNIT: nM
VALUE_OBSERVED: 25
